Test system: Human hepatoma (HepG2) cells
assay.notes: MTT in-vitro cytotoxicity assay on HepG2 cells
Assay type: cell-based
particulars: HepG2, 24 h treatment, 7.8125-500 μM
Give pIC50 for every item shown.
FYI, pIC50 means -log10 of a concentration in mol per litre.

Task: Which pIC50 is reported for this compound? Nc1c2c(nc3ccccc13)CCCC2 [tacrine, Tacrine, reference compound]
Output: 3.91

Task: GET /values?readout=pIC50&item= `N#Cc1c(-c2ccc(O)cc2)c2c([nH]c1=O)CCCC2`
Output: 3.76

Task: What value of pIC50 has been recorded for this entry: `N#Cc1c(N)nc2c(c1-c1ccc(O)cc1)CCCC2`
Output: 3.77

Task: Fill in the blank: the reported pIC50 of `CN(C)c1ccc(-c2c3c([nH]c(=O)c2C#N)CCCC3)cc1` is ____.
Output: 3.74

Task: Please look up its pIC50: `CN(C)c1ccc(-c2c(C#N)c(N)nc3c2CCCC3)cc1`
Output: 3.77
